- system.under.test: T1, SARS-CoV-2 receptor binding domain (RBD), wild type, His-tagged (BEI NR52309) (SARS-CoV-2, UniProt P0DTC2 319-541)
- T1 construct: also called WT RBD
measured.endpoint: RBD binding

[[record]]
binder = "mAb 52 (antibody, V domains shown, also called IgG 52; antibody 52) VH: QVQLVQSGAEVKKPGSSVKVSCKASGYTFTSYGISWVRQAPGQGLEWMGGIIPMFGTTNYAQKFQGRVTITADKSTSTAYMELSSLRSEDTAVYYCARDRGDTIDYWGQGTLVTVSS VL: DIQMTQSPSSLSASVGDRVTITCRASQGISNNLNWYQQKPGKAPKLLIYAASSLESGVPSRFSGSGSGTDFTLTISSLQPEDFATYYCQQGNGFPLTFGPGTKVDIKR"
observed = 0.5

[[record]]
binder = "mAb 46 (antibody, V domains shown, also called IgG 46; antibody 46) VH: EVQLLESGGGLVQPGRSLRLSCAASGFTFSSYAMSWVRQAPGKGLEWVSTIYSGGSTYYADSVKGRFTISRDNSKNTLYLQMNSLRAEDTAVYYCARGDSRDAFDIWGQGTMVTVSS VL: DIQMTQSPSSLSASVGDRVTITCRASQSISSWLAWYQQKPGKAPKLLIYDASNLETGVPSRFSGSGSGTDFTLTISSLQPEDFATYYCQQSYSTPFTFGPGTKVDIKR"
observed = 0.2

[[record]]
binder = "mAb 324 (antibody, V domains shown, also called IgG 324) VH: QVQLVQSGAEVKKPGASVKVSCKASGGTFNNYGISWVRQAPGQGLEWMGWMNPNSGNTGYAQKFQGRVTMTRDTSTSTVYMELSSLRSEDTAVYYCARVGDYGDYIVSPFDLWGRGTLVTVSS VL: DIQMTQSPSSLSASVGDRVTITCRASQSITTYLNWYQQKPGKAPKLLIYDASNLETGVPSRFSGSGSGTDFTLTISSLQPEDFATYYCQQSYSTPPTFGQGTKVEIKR"
observed = 1.2

[[record]]
binder = "mAb 82 (antibody, V domains shown, also called IgG 82) VH: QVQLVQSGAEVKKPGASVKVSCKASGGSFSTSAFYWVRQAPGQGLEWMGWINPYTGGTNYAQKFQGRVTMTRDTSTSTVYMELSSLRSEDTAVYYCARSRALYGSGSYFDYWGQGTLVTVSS VL: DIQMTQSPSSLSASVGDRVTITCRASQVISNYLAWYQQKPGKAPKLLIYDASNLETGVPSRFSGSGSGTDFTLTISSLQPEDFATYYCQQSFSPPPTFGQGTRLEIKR"
observed = 1.4

